System: H. influenzae
experimentalProtocol: MIC, broth microdilution
Assay type: cell-based, Haemophilus influenzae
conditionNotes: H. influenzae ATCC49247, Azi-S
Assign MIC to each entry below.
Answers are plain numbers, in µg/mL.

Request: For the molecule CC[C@H]1OC(=O)[C@H](C)[C@@H](OC(=O)NCCCC#Cc2ccc3c(=O)c(C(=O)O)cn(C4CC4)c3c2)[C@H](C)[C@@H](O[C@@H]2O[C@H](C)C[C@H](N(C)C)[C@H]2O)[C@](C)(O)C[C@@H](C)CN(C)[C@H](C)[C@H]2OC(=O)O[C@@]21C [108c] , what MIC is on record?
Response: 8

Batch request: MIC per item, same order as input.
1. CC[C@H]1OC(=O)[C@H](C)[C@@H](OC(=O)NCCCCCC#Cc2ccc3c(=O)c(C(=O)NO)cn(C4CC4)c3c2)[C@H](C)[C@@H](O[C@@H]2O[C@H](C)C[C@H](N(C)C)[C@H]2O)[C@](C)(OC)C[C@@H](C)C(=NOC)[C@H](C)[C@H]2OC(=O)O[C@@]21C [57e]
2. CC[C@H]1OC(=O)[C@H](C)[C@@H](OC(=O)NCCCCCCC#Cc2ccc3c(=O)c(C(=O)O)cn(C4CC4)c3c2)[C@H](C)[C@@H](O[C@@H]2O[C@H](C)C[C@H](N(C)C)[C@H]2O)[C@](C)(OC)C[C@@H](C)C(=NOC)[C@H](C)[C@H]2OC(=O)O[C@@]21C [58c]
3. CC[C@H]1OC(=O)[C@H](C)[C@@H](OC(=O)NCCOCCC#Cc2ccc3c(=O)c(C(=O)O)cn(C4CC4)c3c2)[C@H](C)[C@@H](O[C@@H]2O[C@H](C)C[C@H](N(C)C)[C@H]2O)[C@](C)(O)C[C@@H](C)CN(C)[C@H](C)[C@H]2OC(=O)O[C@@]21C [116c]
4. CC[C@H]1OC(=O)[C@H](C)[C@@H](OC(=O)NCCNCCC#Cc2ccc3c(=O)c(C(=O)O)cn(C4CC4)c3c2)[C@H](C)[C@@H](O[C@@H]2O[C@H](C)C[C@H](N(C)C)[C@H]2O)[C@](C)(OC)C[C@@H](C)C(=NOC)[C@H](C)[C@H]2OC(=O)O[C@@]21C [74c]
5. CC[C@H]1OC(=O)[C@H](C)[C@@H](OC(=O)NCCCCCCC#Cc2ccc3c(c2)c(=O)c(C(=O)O)cn3C2CC2)[C@H](C)[C@@H](O[C@@H]2O[C@H](C)C[C@H](N(C)C)[C@H]2O)[C@](C)(O)C[C@@H](C)CN(C)[C@H](C)[C@H]2OC(=O)O[C@@]21C [111a]
6. CC[C@H]1OC(=O)[C@H](C)[C@@H](OC(=O)NCCCCC#Cc2ccc3c(c2)c(=O)c(C(=O)O)cn3C2CC2)[C@H](C)[C@@H](O[C@@H]2O[C@H](C)C[C@H](N(C)C)[C@H]2O)[C@](C)(O)C[C@@H](C)CN(C)[C@H](C)[C@H]2OC(=O)O[C@@]21C [109a]
7. CC[C@H]1OC(=O)[C@H](C)[C@@H](OC(=O)NCCCOCCC#Cc2ccc3c(c2)c(=O)c(C(=O)O)cn3C2CC2)[C@H](C)[C@@H](O[C@@H]2O[C@H](C)C[C@H](N(C)C)[C@H]2O)[C@](C)(O)C[C@@H](C)CN(C)[C@H](C)[C@H]2OC(=O)O[C@@]21C [117a]
8. CC[C@H]1OC(=O)[C@H](C)[C@@H](OC(=O)NCCCCCCC#Cc2ccc3c(=O)c(C(=O)O)cn(C4CC4)c3c2)[C@H](C)[C@@H](O[C@@H]2O[C@H](C)C[C@H](N(C)C)[C@H]2O)[C@](C)(O)C[C@@H](C)CN(C)[C@H](C)[C@H]2OC(=O)O[C@@]21C [111c]

Response:
[32, 32, 8, 16, 16, 32, 32, 8]

Request: Field request: MIC | item: CC[C@H]1OC(=O)[C@H](C)[C@@H](OC(=O)NCCOCCC#Cc2ccc3c(=O)c(C(=O)O)cn(C4CC4)c3c2)[C@H](C)[C@@H](O[C@@H]2O[C@H](C)C[C@H](N(C)C)[C@H]2O)[C@](C)(OC)C[C@@H](C)C(=NOC)[C@H](C)[C@H]2OC(=O)O[C@@]21C [70c]
Response: 32
